Entries and their measured pIC50 follow.
tested on: M. tuberculosis H37Rv growth inhibition with meropenem; experiment: dose response, H37Rv, with and without meropenem (AID 434987);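 also: growth over 7 days at 37 °C before Alamar Blue read on day 9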; settings: M. tuberculosis H37Rv growth inhibition; measured here: IC50 without meropenem
pIC50: −log10 of the molar value.
parameterMeasured: pIC50

> print(dat)
                                    molecule  parametermeasured  comparator  number
 1       COc1ccc(C(=O)Nc2nc3ccccc3s2)c(OC)c1              pIC50           <    4.00
 2        COc1ccc2nc(SCc3cccc(C)c3)nc(C)c2c1              pIC50           <    4.00
 3  O=C(CCl)N(c1ccccc1)C1CCS(=O)(=O)C1 (centres undefined)              pIC50           =    4.74
 4  CCOC(=O)/C=C/c1ccc2c(c1)S(=O)(=O)N(Cc1ccc(OC)cc1)[C@H]2CC(=O)OCC              pIC50           <    4.00
 5       Cc1cccc(NC(=O)c2cc3ccccc3c(=O)o2)n1              pIC50           <    4.00
 6  CCCCCn1c(=O)c(C(=O)NCc2ccncc2)c(O)c2ccccc21              pIC50           =    4.09
 7    Cc1ccc2c(c1)CCCN2C(=O)c1cc2ccccc2oc1=O              pIC50           <    4.00
 8                 CCOC(=O)Cc1nc2ccccc2[nH]1              pIC50           =    4.30
 9   Cc1nc(Nc2ccc(Cl)cc2Cl)sc1C(=O)Nc1ccccc1              pIC50           <    4.00
10  CC(C)c1ccc(S(=O)(=O)N2CCN(C(C)C(=O)NC3CCCC3)CC2)cc1 (centres undefined)              pIC50           <    4.00
11      CSc1ncc(Cl)c(C(=O)Nc2cccc3ccccc23)n1              pIC50           =    4.36
12      Cc1ccc(-n2ncc3c(=O)n(CC#N)cnc32)cc1C              pIC50           =    4.29
13  CC(C)OC(=O)CSc1nc(N2CCOCC2)c2c(c1C#N)CC(C)(C)OC2              pIC50           <    4.00
14        COCc1cc(=O)n2[nH]cc(-c3ccccc3)c2n1              pIC50           =    4.38
15                Nc1nc2ccccc2n1C(=O)c1cccs1              pIC50           =    4.37
16  Cc1ccc(C)c(N2CCN(CC3CC=CCC3)CC2)c1 (centres undefined)              pIC50           =    4.10
17  CC(C)(C)c1ccc(OCC(=O)N/N=C/c2cc(Br)ccc2OC(=O)c2ccco2)cc1              pIC50           <    4.00
18  COc1cc(/C=N/NC(N)=S)ccc1OC(=O)c1ccc(C)cc1              pIC50           <    4.00
19  COc1ccc(NC(=O)CCn2c(=O)c3cccn3c3ccccc32)cc1              pIC50           <    4.00
20  COc1cccc(/C=C/c2[nH]c(=O)[nH]c(=O)c2[N+](=O)[O-])c1O              pIC50           =    4.62
21  COc1ccccc1N1CCN(S(=O)(=O)c2ccc3nc(-c4ccccc4)[nH]c3c2)CC1              pIC50           <    4.00
22  COc1cc(NC(=S)NC(=O)c2ccco2)ccc1NC(=O)C(C)C              pIC50           <    4.00
23  O=C(CN1CCC(O)(c2ccc3c(c2)OCO3)CC1)OC1CCCCC1              pIC50           =    4.41
24   COc1ccccc1N1CCN(CC(=O)Nc2cc(F)ccc2C)CC1              pIC50           =    4.23
